System: MDA-MB-435 melanoma
experiment summary: NCI-60 one-dose screen, 48 h (100 = growth as untreated, 0 = no growth, -100 = all killed)
protocol conditions: 10 µM
The panel holds about 83,000 compounds, 20% with a hit somewhere; the sample as a whole holds those more often.
readout: growth (%)
Please reply with the bare figure in % and do not write the unit itself.

CN1C/C(=C\c2ccc(O)cc2O)c2[o+]c3cc(O)ccc3cc2C1
20.4
Cc1cc(=O)oc2cc(OCCCCOc3ccc(/C=C/C(=O)Nc4ccccc4[N+](=O)[O-])cc3)ccc12
112
Cc1ccc(NC(=O)c2ccc(-n3c(=O)[nH]c4ccccc4c3=O)cc2)cc1
102
N#Cc1c(NC(=O)c2ccc(C(F)(F)F)cc2)sc2c1CCC(=O)C2
-41.4
Nc1cccnc1/C=N/NC(=S)NCCNC(=O)c1ccc(-n2nc(-c3ccccc3O)nc2-c2ccccc2O)cc1
53.8
COc1ccc(CN2[C@H](C(=O)NCc3ccc(C(=O)NO)cc3)Cc3c([nH]c4ccccc34)[C@H]2C2CC2)cc1
18.1
O=C1NC(=NC23CC4CC(CC(C4)C2)C3)N/C1=C\c1ccc2ncccc2n1
-11.4
Nc1nc(Nc2ccc(Cl)cc2)nn1Cc1cccc(Br)c1
36.7
Cc1cccc2cc(-c3cc(-c4ccccc4)nc(=S)[nH]3)c(Cl)nc12
-6.63
CN(C(=O)c1ccc(C(F)(F)F)cc1C(F)(F)F)c1sc2c(c1C#N)CCC(=O)C2
101

Req: What value of measured growth is listed for CC(C)CCSc1nc(NC2CC2)c(C#N)c(-c2ccc(C(C)C)cc2)n1 ?
Resp: 112

Req: Field entry: O=c1[nH]c2ccc(Cl)cc2cc1CSc1ccc(Nc2nccc(-c3ccc4ccccc4c3)n2)cc1
Resp: 84.7

Req: Field entry: CCN(CC)CCOc1ccc(C(=C(C)c2ccccc2)c2ccc(OCCN(CC)CC)cc2)cc1
Resp: -83

Req: Field entry: Cn1c(O)c(N=Nc2nc(-c3cc4ccccc4oc3=O)cs2)c2cc(Br)ccc21
Resp: 106

Req: Field entry: O=c1[nH]c2ccccc2cc1CSc1ccc(Nc2nccc(-c3ccc(Cl)cc3)n2)cc1
Resp: 9.58

###

Tested on: SK-MEL-5 melanoma
experiment summary: NCI-60 one-dose screen, 48 h
protocol conditions: 10 µM
About 83,000 compounds went through this panel and 20% of them were active in at least one assay; those are over-represented in the sample as a whole. Activity calls are given as the source filed them. Rule for the calls: active = growth percent below 10; inactive = the rest.
Respond with a class label; see active, inactive

O=C(CSc1nnc(-c2c[nH]c3ccccc23)n1-c1ccccc1)Nc1ccc(C(=O)/C=C/c2cccc([N+](=O)[O-])c2)cc1
inactive
COc1ccc(Nc2nc(N)n(Cc3cccc(Br)c3)n2)cc1
active
O=c1[nH][nH]c(Nc2ccccc2)c1N=Nc1ccc(F)cc1
inactive
COc1ccc2[nH]c(=O)c(CSc3nccc(-c4ccc(Cl)cc4)n3)cc2c1
inactive
O=C(Nc1cccc([N+](=O)[O-])c1)Nc1cccc([N+](=O)[O-])c1
inactive

Req: Hi, sorry to bother you, what did the test record for Clc1ccc(/C=N/Nc2ncnc3sc4c(c23)CCN(Cc2ccccc2)C4)cc1 ?
Resp: inactive

Req: Field entry: Nc1nc2c(F)c(F)c(F)c(F)c2s1
Resp: inactive

###

Test system: RXF 393 renal
experiment summary: NCI-60 one-dose screen, 48 h (100 = growth as untreated, 0 = no growth, -100 = all killed)
protocol conditions: 10 µM
This is part of a sample that, as a whole, favours compounds with a hit. Of some 83,000 tested, about 20% had one in any assay.
Entry flag: yes if growth reaches 60%; no if it does not.

Cc1cccc(NC(=O)CSc2nc3ccc(F)cc3c(=O)n2-c2ccc(Cl)cc2)c1C
no
S=c1nc(-c2ccccc2)cc(-c2cc3ccccc3nc2Cl)[nH]1
yes
O=C(N/N=C/c1ccc(B(O)O)o1)c1[nH]c2ccc(Br)cc2c1-c1ccccc1
no

Next up:
Req: Reported growth reaches at least 60% for O=C(NCCCCC(c1ccc(F)cc1)c1ccc(F)cc1)NCCCc1cccnc1 ?
Resp: no
